TEST DESCRIPTION: Cell Viability - LYMP2-014 (AID 983);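 note: cells exposed to compound for 24 h at 37 °C; nearly all actives have a fitted effect of over 50% in size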
CONDITION: LYMP2-014 lymphoblastoid cells, viability qHTS; series mostly up to 92.2 µM
Inconclusive results are not listed. Calls of active or inactive are those of the source. Calls come from the whole dose curve; as a rule, active = well fitted cell-killing curve with a large enough effect; inconclusive = small, poorly fitted or top-dose-only effect; inactive = flat fitted curve, though single readings scatter.
Tick one outcome: active, inactive

Input line: GET /call?item= C[C@@H]1CC2(OC[C@]3(C)O[C@H]23)O[C@H]2C[C@@]3(C)[C@@H]4CC[C@H]5C(C)(C)C(O[C@@H]6OC[C@@H](O)[C@H](O)[C@H]6O)CC[C@@]56C[C@@]46CC[C@]3(C)[C@@H]12 (stereo partly drawn) returns the recorded outcome of this test.
Output line: inactive

Input line: Assay outcome for CC(=O)CCc1ccccc1 : what was it?
Output line: inactive

Input line: What is the recorded call for this molecule in the test? CCCCC/C=C/C=C/C=O
Output line: active

----------
TEST DESCRIPTION: Cellular Toxicity (caspase-3) Jurkat (AID 655);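 note: cells exposed to compound for 16 h at 37 °C before reading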
CONDITION: Jurkat caspase-3 activation, luminescence; at 92.2 µM (top of the series), DMSO = 0%, tamoxifen = 100%
Results filed as inconclusive are left out. Activity calls are given as the source filed them. Calls come from the whole dose curve; as a rule, active = well fitted activation curve with a large enough effect; inconclusive = small, poorly fitted or top-dose-only effect; inactive = flat fitted curve, though single readings scatter.
METRIC NAME: caspase-3 activation

Input line: Identify measured caspase-3 activation corresponding to COc1cccc2sc(N)nc12
Output line: -0.447% (inactive)

Input line: Give the reported caspase-3 activation for this compound. CC(N)CN (stereo unspecified)
Output line: 2.43% (inactive)

Input line: Fill in reported caspase-3 activation for this entry: C=CCCCCCCC=C
Output line: 2.57% (inactive)

Input line: Give the reported caspase-3 activation for this compound. O=C(O)c1ccc(CO)o1
Output line: 1.29% (inactive)

Input line: Respond only with caspase-3 activation recorded for Cc1ccc(C)c(O)c1
Output line: 0.228% (inactive)

Input line: Tell me caspase-3 activation reported for O=[N+]([O-])c1cc(C(F)(F)F)ccc1Cl
Output line: 0.364% (inactive)

Input line: Using known records, supply caspase-3 activation for CN(C)c1cccc(O)c1
Output line: -0.572% (inactive)

Input line: Quickly give me recorded caspase-3 activation for Cc1nc2ccc(Cl)cc2[nH]1
Output line: 0.744% (inactive)

Input line: Please supply the value of reported caspase-3 activation for the item NC(=O)CCCCC(N)=O
Output line: 2.15% (inactive)

Input line: Consider the compound CCOCCO . State its measured caspase-3 activation.
Output line: 0.459% (inactive)

Input line: Retrieve caspase-3 activation measured for CC(=O)OC(C)C and print it.
Output line: -0.432% (inactive)

----------
TEST DESCRIPTION: qHTS assay for small molecule antagonists of retinoid X receptor alpha signaling (AID 588546);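 note: cells stimulated with 9-cis-retinoic acid as agonist; % is set by controls: 0 for no effect and ±100 for the full control effect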
CONDITION: HEK293T RXRa-UAS-bla, beta-lactamase ratio, antagonist mode; measured here: W530 green channel, cytotoxicity proxy
Inconclusive results are not listed.
METRIC NAME: max response

Input line: Give reported max response value for C=C(C)C(=O)OC
Output line: -11.6%

Input line: Specify reported max response for the molecule shown: C[C@@H]1O[C@@H](O[C@@H]2[C@@H](O)[C@H](OCCc3ccc(O)c(O)c3)O[C@H](CO[C@@H]3O[C@H](CO)[C@@H](O)[C@H](O)[C@H]3O)[C@H]2OC(=O)/C=C/c2ccc(O)c(O)c2)[C@H](O)[C@H](O)[C@H]1O
Output line: -0.609%

Input line: Answer with the recorded max response for the molecule listed here: c1ccsc1
Output line: -0.2%

Input line: Give me measured max response, please, for this molecule: CC#N
Output line: -2.35%

Input line: Supply recorded max response for OCCO here.
Output line: 0.506%

Input line: Indicate its recorded max response; the molecule in question is Cc1ccco1
Output line: -5.98%

Input line: Note max response for the molecule shown: NS(=O)(=O)O
Output line: 1.78%

Input line: Specify reported max response for the molecule shown: CCCC(Cl)CCCC(Cl)CCC(Cl)CCC(Cl)CCC(Cl)CCCC(Cl)CCC (centres undefined)
Output line: -0.455%

Input line: Identify max response associated with the molecule Cc1cccc(C)c1
Output line: -8.63%

Input line: Assign max response to the following record: CSCCC=O
Output line: -2.47%

Input line: Fill in max response for record COc1ccc(N)c(OC)c1
Output line: -0.758%

Input line: Identify max response associated with the molecule CC(=O)Nc1cccc(N)c1
Output line: -0.371%

Input line: Quote max response reported for NC(N)=S please.
Output line: 10%

Input line: Note max response for the molecule shown: O=C1NC(=O)c2cc([N+](=O)[O-])ccc21
Output line: 4.85%

Input line: Read off the recorded max response for Cc1ccc(C)o1
Output line: 5.87%

Input line: State, in one line, measured max response of C=C(C)C(N)=O
Output line: -10.5%

Input line: Dear colleague, please send me the reported max response for O=C(O)c1cc(Cl)cc(Cl)c1 when you can.
Output line: -0.682%

Input line: # return recorded max response for entry Fc1ccccc1
Output line: -11.6%

Input line: Entry Cc1ccccc1C(=O)O needs its max response filled in; supply it.
Output line: -2.02%

----------
Answer each item with its documented max response.
TEST DESCRIPTION: qHTS assay for small molecule agonists of the antioxidant response element (ARE) signaling pathway measured by Nrf2-dependant transcriptional activity - cell viability counter screen (AID 720653); note: % is set by controls: 0 for no effect and ±100 for the full control effect
CONDITION: ARE-bla HepG2 viability, CellTiter-Glo ATP luminescence, 16 h; stronger effect = lower value
Results filed as inconclusive are left out.
// note: answer is a bare numeric in %

Input line: Tell me max response reported for CNC(=O)N(c1ccccc1)c1ccccc1
Output line: -11.7

Input line: For the molecule Cc1ccc(Cl)cc1 , give its reported max response.
Output line: 4.9

Input line: Read the entry CCCOCC(C)O (stereo unspecified) and write its reported max response.
Output line: 8.24

Input line: Annotate the molecule COc1ccc(N)c(OC)c1 with its measured max response.
Output line: 4.1

Input line: For the molecule Cc1cc(C)c(N)cc1C , give its measured max response value.
Output line: 7.8

Input line: Please give the documented max response of Clc1cc(Cl)cc(Cl)c1
Output line: -5.36

----------
TEST DESCRIPTION: Cell Viability - LYMP2-021 (AID 974);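 note: compound exposure lasts 24 hours at 37 °C; nearly all actives have a fitted effect of over 55% in size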
CONDITION: LYMP2-021 lymphoblastoid cells viability; series mostly up to 92.2 µM
Records with an inconclusive call do not appear. Active and inactive are the calls of the source. Calls come from the whole dose curve; as a rule, active = well fitted cell-killing curve with a large enough effect; inconclusive = small, poorly fitted or top-dose-only effect; inactive = flat fitted curve, though single readings scatter.
Output constraint: value belongs to yes (1) for active, no (0) for inactive

Input line: Hi, do you know how CSCCC=O came out in this test?
Output line: no (0)

Input line: Can you look up the reported call for CCN(C(=O)N(CC)c1ccccc1)c1ccccc1 for me?
Output line: no (0)

Input line: Called result for O=C1CCC(=O)O1
Output line: no (0)

Input line: In this assay, the call recorded for CNC(=O)c1ccccc1 was what?
Output line: no (0)

Input line: Outcome logged for CCOc1cc(OCC)c(C(C)=O)cc1OCC in this assay:
Output line: no (0)

Input line: Would you mind telling me which call this test gave ICCc1ccccc1 ?
Output line: no (0)

Input line: // param item: C(=C/c1ccccc1)/c1ccccc1 ; yields the recorded call
Output line: no (0)

Input line: Hi team, can someone confirm the assay call for CC(C)=CCl ?
Output line: no (0)

Input line: Which result was noted for this compound in the test: Cc1cccc2cccnc12
Output line: no (0)

Input line: Outcome logged for Cc1ccc(S(=O)(=O)NC2CCCCC2)cc1 in this assay:
Output line: no (0)

Input line: Could you check what this test reported for CCCCC(CC)CO (configuration not stated) ?
Output line: no (0)

Input line: What call does the record list for CC(C)(C)c1ccc(OCC2CO2)cc1 (configuration not stated) ?
Output line: no (0)

Input line: Per the assay record, what outcome was assigned to COc1ccc(N=[N+]([O-])c2ccc(OC)cc2)cc1 ?
Output line: no (0)

Input line: Identify the outcome logged in this assay for the compound shown: CCCCC/C=C/C=C/C=O
Output line: yes (1)

Input line: State the result this test recorded for O=C(O)CCSSCCC(=O)O .
Output line: no (0)

Input line: Which outcome was entered for the compound CC(N)CN (configuration not stated) in this test?
Output line: no (0)

Input line: # fetch the recorded call for BrC(Br)C(Br)Br here
Output line: no (0)

----------
SYSTEM NAME: Thyroid hormone receptor beta (Homo sapiens) (UniProt P10828)
Sequence (P10828 whole entry, looked up): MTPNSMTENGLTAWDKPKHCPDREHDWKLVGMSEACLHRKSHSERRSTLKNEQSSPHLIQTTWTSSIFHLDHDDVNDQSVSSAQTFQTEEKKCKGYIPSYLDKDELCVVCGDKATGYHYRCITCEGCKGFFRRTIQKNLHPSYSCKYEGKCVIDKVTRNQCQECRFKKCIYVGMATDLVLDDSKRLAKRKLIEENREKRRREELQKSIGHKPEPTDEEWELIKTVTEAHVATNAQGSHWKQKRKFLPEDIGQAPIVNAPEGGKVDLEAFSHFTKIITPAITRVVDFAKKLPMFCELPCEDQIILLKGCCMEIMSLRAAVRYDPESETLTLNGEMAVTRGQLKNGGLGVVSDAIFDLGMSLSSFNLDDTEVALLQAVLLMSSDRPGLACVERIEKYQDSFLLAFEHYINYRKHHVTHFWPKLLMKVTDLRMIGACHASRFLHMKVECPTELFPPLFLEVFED
TEST DESCRIPTION: qHTS assay for small molecule antagonists of thyroid hormone receptor beta signaling (AID 588547);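 note: cells stimulated with 0.4 nM T3 agonist during compound exposure; % is set by controls: 0 for no effect and ±100 for the full control effect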
CONDITION: TR-UAS-bla HEK293, beta-lactamase ratio, antagonist mode, 18 h
Results filed as inconclusive are left out.
Record form. Attribute: activity change % (negative = inhibition). Fill in for each entry.
The reply should be a number in %, with the unit left off.

Input line: Please give the documented activity change % (negative = inhibition) of CC(C)(O)C(=O)O
Output line: 8.51

Input line: State its activity change % (negative = inhibition): CCCOCC(C)OCC(C)O (centres undefined)
Output line: 6.45

Input line: Quote activity change % (negative = inhibition) reported for CC(=O)CC(C)C please.
Output line: -3.32

Input line: Provide one value: measured activity change % (negative = inhibition) of CCC1CO1 (centres undefined)
Output line: -15.4

Input line: Look up and report measured activity change % (negative = inhibition) for this entry: CCOCCOCC
Output line: 12.3

Input line: Note down activity change % (negative = inhibition) recorded for OC1CCCC1
Output line: 8.64

Input line: Determine from records and report activity change % (negative = inhibition) for C=C(C)C(=O)OCC(C)O (centres undefined)
Output line: 11.2

Input line: In one line, give reported activity change % (negative = inhibition) of the entry O=[N+]([O-])c1ccc(CCO)cc1 .
Output line: 3.64

Input line: Consider the molecule CCCCC(CC)C(=O)O (centres undefined) . State its measured activity change % (negative = inhibition).
Output line: -2.96
